Lab note: IC50 readings collected with human IRE-1α (GST-IRE-1α) (Homo sapiens (Human), UniProt O75460) for the following compounds.
Sequence (O75460 19-977): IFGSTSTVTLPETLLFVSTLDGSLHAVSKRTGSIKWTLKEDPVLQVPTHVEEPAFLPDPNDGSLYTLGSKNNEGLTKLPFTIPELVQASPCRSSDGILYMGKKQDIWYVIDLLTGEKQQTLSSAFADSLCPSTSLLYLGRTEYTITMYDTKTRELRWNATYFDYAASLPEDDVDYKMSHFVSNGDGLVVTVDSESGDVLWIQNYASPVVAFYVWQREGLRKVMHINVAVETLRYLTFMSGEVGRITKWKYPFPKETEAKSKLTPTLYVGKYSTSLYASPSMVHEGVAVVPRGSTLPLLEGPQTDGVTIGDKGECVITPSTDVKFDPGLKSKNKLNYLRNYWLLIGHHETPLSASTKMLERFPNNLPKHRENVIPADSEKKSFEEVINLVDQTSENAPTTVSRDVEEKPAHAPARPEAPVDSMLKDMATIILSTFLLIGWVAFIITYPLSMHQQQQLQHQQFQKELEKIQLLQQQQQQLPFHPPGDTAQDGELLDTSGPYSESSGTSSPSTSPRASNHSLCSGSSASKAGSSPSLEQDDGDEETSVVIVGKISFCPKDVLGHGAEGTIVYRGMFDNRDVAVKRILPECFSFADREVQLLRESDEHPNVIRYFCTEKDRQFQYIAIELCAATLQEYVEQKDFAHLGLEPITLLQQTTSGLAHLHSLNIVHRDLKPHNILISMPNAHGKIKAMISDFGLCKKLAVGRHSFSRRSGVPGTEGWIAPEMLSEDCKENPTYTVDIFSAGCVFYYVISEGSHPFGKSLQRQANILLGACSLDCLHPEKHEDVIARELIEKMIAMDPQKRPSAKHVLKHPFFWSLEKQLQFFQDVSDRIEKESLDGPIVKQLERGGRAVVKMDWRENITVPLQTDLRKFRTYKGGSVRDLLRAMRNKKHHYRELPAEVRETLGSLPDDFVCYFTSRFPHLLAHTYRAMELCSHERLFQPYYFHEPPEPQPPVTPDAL

| substance.smiles | endpoint.name | observed.value |
| --- | --- | --- |
| COCCNC(=O)CCc1c(C)c2cc(OC)c(O)c(C=O)c2oc1=O | IC50 | < 100 nM |
| COCCOc1cc(O)c(C=O)c2oc(=O)c(CCC(=O)NCCN3CCOCC3)c(C)c12 | IC50 | < 1000 nM |
| COCCNC(=O)Cc1c(C)c2cc(OC)c(O)c(C=O)c2oc1=O | IC50 | < 1000 nM |
| COc1cc2c(C)c(C(C)C)c(=O)oc2c(C=O)c1O | IC50 | < 100 nM |
| COCCNC(=O)Cc1c(C)c2c(OC)cc(O)c(C=O)c2oc1=O | IC50 | < 100 nM |
| COc1cc2c(C)c(CCC(=O)NCCN(C)C)c(=O)oc2c(C=O)c1O | IC50 | < 1000 nM |
| COCCOc1cc2c(C)c(CCC(=O)NCCN(C)C)c(=O)oc2c(C=O)c1O | IC50 | < 100 nM |
| COCc1c(CCC(=O)N2CCOCC2)c(=O)oc2c(C=O)c(O)c(OC)cc12 | IC50 | < 100 nM |

What IC50 value was documented for this compound, COc1cc2c(C(C)C)cc(=O)oc2c(C=O)c1O ?
< 100 nM

---

Assignment: determine reported pIC50 for the given molecules.
- measured.on: human IRE-1α (GST-IRE-1α) (Homo sapiens (Human), UniProt O75460)
pIC50: −log10 of the molar value.

Record excerpt, results attached:
| substance.smiles | endpoint.name | observed.value |
| --- | --- | --- |
| COc1cc2c(C)c(CC(=O)N3CCN(C)CC3)c(=O)oc2c(C=O)c1O | pIC50 | > 7.00 |
| COCCOc1cc(O)c(C=O)c2oc(=O)cc(C)c12 | pIC50 | > 7.00 |
| Cc1c(CC(=O)N2CCN(C)CC2)c(=O)oc2c(C=O)c(O)ccc12 | pIC50 | > 7.00 |
| CCNC(=O)CCc1c(C)c2cc(OC)c(O)c(C=O)c2oc1=O | pIC50 | > 7.00 |
| COc1cc2c(C)c(C)c(=O)oc2c(C=O)c1O | pIC50 | > 7.00 |

For each entry beneath this line, provide reported pIC50.
1. CCNC(=O)CCc1c(C)c2c(OCCOC)cc(O)c(C=O)c2oc1=O
2. CCc1cc2c(C)c(-c3ccc(C(=O)N4CCOCC4)cc3)c(=O)oc2c(C=O)c1O
3. COCCOc1cc2c(C)c(CCC(=O)NCCN3CCOCC3)c(=O)oc2c(C=O)c1O
4. COc1cc(O)c(C=O)c2oc(=O)c(CCC(=O)N3CCN(C)CC3)c(C)c12
5. COCCNC(=O)CCc1c(C)c2c(OC)cc(O)c(C=O)c2oc1=O

> 6.00
> 6.00
> 6.00
> 7.00
> 7.00

For each entry beneath this line, provide reported pIC50.
1. CCc1cc2c(C)c(-c3ccc(C(=O)NCCOC)cc3)c(=O)oc2c(C=O)c1O
2. Cc1c(CC(=O)N2CCOCC2)c(=O)oc2c(C=O)c(O)ccc12

["> 7.00", "> 7.00"]

For each entry beneath this line, provide reported pIC50.
1. COCCNC(=O)c1ccc(-c2c(C)c3cc(Cl)c(O)c(C=O)c3oc2=O)cc1
2. COc1cc2c(CN(C)C)c(C)c(=O)oc2c(C=O)c1O
3. COc1cc2c(C)c(CCC(=O)NCCO)c(=O)oc2c(C=O)c1O
4. COc1cc(O)c(C=O)c2oc(=O)cc(C)c12
5. COc1cc2c(C)c(CCC(=O)N3CCN(C)CC3)c(=O)oc2c(C=O)c1O
6. COc1cc2c(C)c(-c3ccc(C(=O)N4CCOCC4)s3)c(=O)oc2c(C=O)c1O
7. COc1cc(O)c(C=O)c2oc(=O)c(CC(=O)N3CCOCC3)c(C)c12

["> 6.00", "> 7.00", "> 7.00", "> 6.00", "> 7.00", "> 7.00", "> 7.00"]

For each entry beneath this line, provide reported pIC50.
1. COc1cc2c(C)c(-c3ccc(C(=O)NCCN4CCOCC4)s3)c(=O)oc2c(C=O)c1O
2. Cc1c(CCC(=O)NCCN2CCOCC2)c(=O)oc2c(C=O)c(O)ccc12
3. COCc1c(CCC(=O)NCCN2CCOCC2)c(=O)oc2c(C=O)c(O)c(OC)cc12
4. COCCOc1cc(O)c(C=O)c2oc(=O)c(CCC(=O)N3CCN(C)CC3)c(C)c12
5. CCOC(=O)Cc1c(C)c2cc(OC)c(O)c(C=O)c2oc1=O

1: > 6.00; 2: > 7.00; 3: > 6.00; 4: > 7.00; 5: > 7.00

What pIC50 value was documented for this molecule, Cc1c(-c2ccc(C(=O)NCCN3CCOCC3)cc2)c(=O)oc2c(C=O)c(O)c(Cl)cc12 ?
> 6.00

---

- measured.on: human IRE-1α (GST-IRE-1α) (Homo sapiens (Human), UniProt O75460)
endpoint.name: IC50

For each entry beneath this line, provide reported IC50.
1. COc1cc2c(C(F)(F)F)cc(=O)oc2c(C=O)c1O
2. COCCOc1cc2c(C)c(CCC(=O)N3CCOCC3)c(=O)oc2c(C=O)c1O
3. COCCOc1cc(O)c(C=O)c2oc(=O)c(CCC(=O)N3CCOCC3)c(C)c12
4. COCc1c(C)c(=O)oc2c(C=O)c(O)ccc12
5. COc1cc2c3c(c(=O)oc2c(C=O)c1O)CCC3

1. < 1000 nM
2. < 100 nM
3. < 100 nM
4. < 100 nM
5. > 1000 nM
